- System: NCI-H226 lung
- method summary: NCI-60 one-dose screen, 48 h (100 = growth as untreated, 0 = no growth, -100 = all killed)
- condition details: 10 µM unless noted
- Protocol: Growth inhibition of the NCI-H226 human Non-Small Cell Lung tumor cell line is measured as a screen for anti-cancer activity. Cells are grown in 96 well plates and exposed to the test compound for 48 hours. Compounds are tested at a single concentration, which is 10^-5 M for most compounds. The reported endpoint is percent growth (GI% or GIPRCNT), where numbers from 0 - 100% represent growth inhibition, and numbers from -100% - 0 represent cell death. […]
The panel holds about 83,000 compounds, 20% with a hit somewhere; the sample as a whole holds those more often.
value type: growth (%)

| compound | endpoint result |
| --- | --- |
| CN(C)CC(O)c1ccc(/C=C/c2ccc(Cl)cc2)cc1 (centres undefined) | 73.4 |
| CC1=C(C(=O)/C=C/c2ccc(N(C)C)cc2)C(c2ccccc2)NC(=S)N1 (centres undefined) | 93.8 |
| Cc1ccc(-n2nc3c(c(C#N)c2=O)CC(c2ccccc2[N+](=O)[O-])C([N+](=O)[O-])=C3O)cc1 (centres undefined) | 92.1 |
| COc1cc(/C(C)=C(\c2ccc(Cl)cc2)c2ccc(OCCN(C)C)cc2)ccc1F | 91 |
| O=C(/C=C(/C=C/c1csc2ccccc12)OB(F)F)/C=C/c1csc2ccccc12 | 27.9 |
| CCCCN1C=CCN(CCCC)C1 | 82.9 |
| Brc1ccc2[nH]cc(-c3cncn3CCc3ccccc3)c2c1 | 53.5 |
| COc1ccc(/C=C/c2nc(Nc3ccc(S(=O)(=O)NC(C)=O)cc3)c3ccccc3n2)cc1 | 84 |
| C=C(C)[C@@H]1CC[C@]2(C(=O)N3CCN(C)CC3)CC[C@]3(C)[C@H](CC[C@@H]4[C@@]5(C)CC[C@H](O)C(C)(C)[C@@H]5CC[C@]43C)[C@@H]12 | 129 |
